The measured values listed here are drawn from PubChem BioAssay.

Experiment: antimalarial activity against Dd2 strain (AID 2302);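 note: 0% = DMSO untreated growth and 100% = chloroquine plus artemisinin killed control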
Conditions: P. falciparum Dd2 in RBCs, LDH growth readout, 72 h; at 2 µM
The source made the active and inactive calls.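 Rule for the calls: active = growth inhibition above 50% at the single 2 µM test dose, taken to imply half-maximal potency below 2 µM; inactive = the rest.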
# valid calls are 1 (yes) = active, 0 (no) = inactive; nothing else

> print(dat)
                                   molecule  assigned.class
1  Cn1c(NC(=O)C2CCC(CNC(=O)c3ccc(O)c(-c4cccc([N+](=O)[O-])c4)c3)CC2)nc2ccccc21 (stereo not given)         1 (yes)
2      COc1cc(Cc2cnc(N)nc2N)cc(OCCCC#N)c1OC          0 (no)
3  COc1cccc(C(=O)[C@H]2C[C@@H]2CN(C)CC(O)c2cc(C)c(OC)cc2C)c1 (stereo not given in full)         1 (yes)
4  COCCNCc1ncsc1-c1ccc2c(Nc3cc(O)c(Cl)cc3F)ccnc2c1         1 (yes)
5  CN(c1ccc(NC(=O)Nc2cc(C(C)(C)C)on2)cc1)c1ccnc(NCCN2CCOCC2)n1          0 (no)
6       CCc1nc2nc(C)cc(Nc3cc(C)cc(C)c3)n2n1         1 (yes)
7  CCC(c1ccccc1)c1nn2c(-c3cccs3)nnc2s1 (stereo not given)         1 (yes)
8  COCCOc1ccc(Nc2nccc(-c3c(-c4cccc(NC(=O)c5c(F)cccc5F)c4)nn4ccccc34)n2)cc1Cl         1 (yes)
9  N#Cc1ccc2c(c1)CCN(CCC1CCC(NC(=O)Nc3ccncc3)CC1)C2 (stereo not given)          0 (no)

Alright, here's another molecule for you.
Recorded call for `O=C(CSc1nc(-c2ccccc2Cl)ns1)Nc1cccc(F)c1` ?
1 (yes)

====

Quick reference: log fold change Tl+ flux of the listed items.
System: R275C
Assay: modulators of BK channel variants, profiling panel, selectivity assay, cell-based, U2OS BacMam, thallium flux, beta subunits (AID 1259406);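 note: initial slope of Thallos dye fluorescence rise after thallium is added; log ratio against the mean of 0.3% DMSO vehicle wells on the same plate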
Conditions: at 30 µM
No unit in the answer, please; the number alone is enough.

Look over these answered cases.
> print(dat)
                                   compound    value
1  O=S(=O)(Cc1nc(-c2ccc3c(c2)OCCO3)cs1)c1ccccn1  -0.0303
2  Nc1nc(Cl)nc2c1ncn2[C@@H]1O[C@H](CO)[C@@H](O)[C@H]1O   0.0386
3  NCC(O)c1ccc(O)c(O)c1 (stereo unspecified)   0.0185
4  O=C(Nc1c(S(=O)(=O)c2ccccc2)csc1Br)c1ccccc1Cl  -0.0217

# get_value(readout='log fold change Tl+ flux', item= CC(C)(S)C(N)C(=O)O (stereo unspecified) )
-0.00906

# get_value(readout='log fold change Tl+ flux', item= `Cn1c(C(F)(F)F)nnc1S(=O)(=O)Cc1ccc(-c2csnn2)cc1` )
0.0229

====

Quick reference: normalised cell number of the listed items.
Test: differential killing of epithelial or mesenchymal cells, primary screen, imaging, PC-3E GFP, TEM4-18 mCherry, co-culture (AID 1345086);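 note: cells exposed to compound for 72 h before imaging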
Conditions: imaging cell counts, measured here: mesenchymal TEM4-18 mCherry cell survival, at 1 µM
No unit in the answer, please; the number alone is enough.

Look over these answered cases.
> print(dat)
                                   compound  value
1  COC(=O)c1cc(OC)cc(OC(=O)c2c(O)cc3cc(C)oc(=O)c3c2O)c1O   0.86
2                          C[n+]1ccccc1C=NO   1.02
3  COc1cc(OC)c2c(c1C)C(C)(O)COC2=O (stereo not given)   1.02

# get_value(readout='normalised cell number', item= `CSCC[C@H](NC(=O)[C@H](Cc1c[nH]c2ccccc12)NC(=O)[C@H](C)NC(=O)OC(C)(C)C)C(=O)N[C@@H](CC(=O)O)C(=O)N[C@@H](Cc1ccccc1)C(N)=O` )
1.13

# get_value(readout='normalised cell number', item= `O=C(O)C(c1ccccc1)c1ccccc1` )
1.13
